# Tested on: U251
# test summary: NCI 60 panel growth inhibition (SRB), CNS cancer
# Type: cell-based, human
# condition set: U251, 10 μM
readout name: GI% (%)
Kindly provide the numeric value in % only, without the unit symbol.

Take a look at these entries with their results.
| molecule | value unit | GI% |
| --- | --- | --- |
| COc1ccc(-c2nc3ccccc3s2)cc1OCC(=O)NN=C1C(=O)Nc2ccc([N+](=O)[O-])cc21 [Compound 9p] | % | 78.07 |
| Cc1ccc2c(c1)C(=NNC(=O)COc1ccccc1-c1nc3ccccc3s1)C(=O)N2 [Compound 9b] | % | 56.51 |
| O=C(COc1ccccc1-c1nc2ccccc2s1)NN=C1C(=O)Nc2ccc(Br)cc21 [Compound 9f] | % | 86.92 |

get_value(item= COc1ccc(-c2nc3ccccc3s2)cc1OCC(=O)NN=C1C(=O)Nc2ccccc21 [Compound 9m] , readout=GI%) returns 13.36

get_value(item= COc1ccc2c(c1)C(=NNC(=O)COc1cc(-c3nc4ccccc4s3)ccc1OC)C(=O)N2 [Compound 9o] , readout=GI%) returns 143.46

get_value(item= CNC(=O)c1nn(C)c2c1C(C)(C)Cc1cnc(Nc3ccc(N4CCN(C)CC4)cc3)nc1-2 [Milciclib, reference compound] , readout=GI%) returns 91.50

get_value(item= COc1cccc(-c2nc3ccccc3s2)c1OCC(=O)NN=C1C(=O)Nc2ccccc21 [Compound 9g] , readout=GI%) returns 8.36

get_value(item= COc1ccc(-c2nc3ccccc3s2)cc1OCC(=O)NN=C1C(=O)Nc2ccc(Br)cc21 [Compound 9r] , readout=GI%) returns 30.21

get_value(item= COc1ccc(-c2nc3ccccc3s2)cc1OCC(=O)NN=C1C(=O)Nc2ccc(Cl)cc21 [Compound 9q] , readout=GI%) returns 63.50

get_value(item= COc1cccc(-c2nc3ccccc3s2)c1OCC(=O)NN=C1C(=O)Nc2ccc(C)cc21 [Compound 9h] , readout=GI%) returns 5.89

---

# Test system: SK-MEL-5
# test summary: NCI 60 panel growth inhibition (SRB), melanoma
# Type: cell-based, human
# condition set: SK-MEL-5, 10 μM
Criterion: GI% meeting or surpassing 40%. Met: met. Not met: not met.

| molecule | assigned class |
| --- | --- |
| COc1cccc(-c2nc3ccccc3s2)c1OCC(=O)NN=C1C(=O)Nc2ccc(C)cc21 | met |

Lab note: next molecule to report on.
Data request: Form field: GI% at least 40%? Entry: `COc1cccc(-c2nc3ccccc3s2)c1OCC(=O)NN=C1C(=O)Nc2ccc(Cl)cc21`
Data returned: not met

---

# System: SK-OV-3
# test summary: NCI 60 panel growth inhibition (SRB), ovarian cancer
# Assay type: cell-based, human
# condition set: SK-OV-3, 10 μM
The following compounds are listed with their measured GI% values.
Kindly provide the numeric value in % only, without the unit symbol.

get_value(item= `COc1ccc2c(c1)C(=NNC(=O)COc1c(OC)cccc1-c1nc3ccccc3s1)C(=O)N2` , readout=GI%) returns 9.98

get_value(item= CNC(=O)c1nn(C)c2c1C(C)(C)Cc1cnc(Nc3ccc(N4CCN(C)CC4)cc3)nc1-2 [Milciclib, reference compound] , readout=GI%) returns 116.90

get_value(item= `COc1cccc(-c2nc3ccccc3s2)c1OCC(=O)NN=C1C(=O)Nc2ccccc21` , readout=GI%) returns 8.22

---

The following compounds are listed with their measured GI% values.
# Test system: RXF 393
# test summary: NCI 60 panel growth inhibition (SRB), renal cancer
# Format: cell-based, human
# condition set: RXF 393, 10 μM

Take a look at these entries with their results.
| compound | readout name | result |
| --- | --- | --- |
| CNC(=O)c1nn(C)c2c1C(C)(C)Cc1cnc(Nc3ccc(N4CCN(C)CC4)cc3)nc1-2 [Milciclib, reference compound] | GI% | 148.20% |
| COc1ccc(-c2nc3ccccc3s2)cc1OCC(=O)NN=C1C(=O)Nc2ccc(Cl)cc21 | GI% | 32.76% |
| COc1cccc(-c2nc3ccccc3s2)c1OCC(=O)NN=C1C(=O)Nc2ccc(C)cc21 | GI% | 25.38% |

get_value(item= `COc1cccc(-c2nc3ccccc3s2)c1OCC(=O)NN=C1C(=O)Nc2ccc([N+](=O)[O-])cc21` , readout=GI%) returns 9.05%

---

# Tested on: MDA-MB-435
# test summary: NCI 60 panel growth inhibition (SRB), melanoma
# Format: cell-based, human
# condition set: MDA-MB-435, 10 μM
readout name: GI% (%)
Kindly provide the numeric value in % only, without the unit symbol.

Take a look at these entries with their results.
| molecule | study target | GI% / % |
| --- | --- | --- |
| COc1ccc2c(c1)C(=NNC(=O)COc1ccccc1-c1nc3ccccc3s1)C(=O)N2 | MDA-MB-435 | 19.69 |
| COc1cccc(-c2nc3ccccc3s2)c1OCC(=O)NN=C1C(=O)Nc2ccccc21 | MDA-MB-435 | 10.97 |
| Cc1ccc2c(c1)C(=NNC(=O)COc1ccccc1-c1nc3ccccc3s1)C(=O)N2 | MDA-MB-435 | 17.86 |
| COc1ccc(-c2nc3ccccc3s2)cc1OCC(=O)NN=C1C(=O)Nc2ccc(Cl)cc21 | MDA-MB-435 | 37.37 |
| COc1cccc(-c2nc3ccccc3s2)c1OCC(=O)NN=C1C(=O)Nc2ccc(Br)cc21 | MDA-MB-435 | 5.27 |

get_value(item= `COc1cccc(-c2nc3ccccc3s2)c1OCC(=O)NN=C1C(=O)Nc2ccc([N+](=O)[O-])cc21` , readout=GI%) returns 6.00

---

# System: UACC-257
# test summary: NCI 60 panel growth inhibition (SRB), melanoma
# Assay type: cell-based, human
# condition set: UACC-257, 10 μM
readout name: GI%

Take a look at these entries with their results.
| compound | study target | readout name | result |
| --- | --- | --- | --- |
| O=C(COc1ccccc1-c1nc2ccccc2s1)NN=C1C(=O)Nc2ccc(Cl)cc21 | UACC-257 | GI% | – (GI% < 5%) |
| Cc1ccc2c(c1)C(=NNC(=O)COc1ccccc1-c1nc3ccccc3s1)C(=O)N2 | UACC-257 | GI% | – (GI% < 5%) |
| COc1ccc(-c2nc3ccccc3s2)cc1OCC(=O)NN=C1C(=O)Nc2ccc([N+](=O)[O-])cc21 | UACC-257 | GI% | – (GI% < 5%) |
| COc1cccc(-c2nc3ccccc3s2)c1OCC(=O)NN=C1C(=O)Nc2ccc(C)cc21 | UACC-257 | GI% | – (GI% < 5%) |

get_value(item= `COc1ccc(-c2nc3ccccc3s2)cc1OCC(=O)NN=C1C(=O)Nc2ccc(C)cc21` , readout=GI%) returns – (GI% < 5%)

---

# System: TK-10
# test summary: NCI 60 panel growth inhibition (SRB), renal cancer
# Type: cell-based, human
# condition set: TK-10, 10 μM
# Method: Screening of cytotoxic activity against a panel of sixty human tumor cell lines The selected compounds by NCI were evaluated for their anticancer activity in a two- stage process. […] Using the seven absorbance measurements [time zero, (Tz), control growth, (C), and test growth in the presence of drug at the five concentration levels (Ti)], the percentage growth is calculated at each of the drug concentrations levels. […] Three dose response parameters are calculated for each experimental agent. […]
readout name: GI%

Take a look at these entries with their results.
| compound | GI% |
| --- | --- |
| COc1ccc2c(c1)C(=NNC(=O)COc1ccccc1-c1nc3ccccc3s1)C(=O)N2 [Compound 9c] | – (GI% < 5%) |
| COc1cccc(-c2nc3ccccc3s2)c1OCC(=O)NN=C1C(=O)Nc2ccc(C)cc21 [Compound 9h] | – (GI% < 5%) |
| COc1cccc(-c2nc3ccccc3s2)c1OCC(=O)NN=C1C(=O)Nc2ccccc21 [Compound 9g] | – (GI% < 5%) |
| COc1ccc(-c2nc3ccccc3s2)cc1OCC(=O)NN=C1C(=O)Nc2ccc(Br)cc21 [Compound 9r] | 36.32% |
| COc1ccc(-c2nc3ccccc3s2)cc1OCC(=O)NN=C1C(=O)Nc2ccccc21 [Compound 9m] | 10.32% |
| O=C(COc1ccccc1-c1nc2ccccc2s1)NN=C1C(=O)Nc2ccc(Cl)cc21 [Compound 9e] | – (GI% < 5%) |
| COc1cccc(-c2nc3ccccc3s2)c1OCC(=O)NN=C1C(=O)Nc2ccc([N+](=O)[O-])cc21 [Compound 9j] | – (GI% < 5%) |
| COc1cccc(-c2nc3ccccc3s2)c1OCC(=O)NN=C1C(=O)Nc2ccc(Cl)cc21 [Compound 9k] | – (GI% < 5%) |

get_value(item= COc1ccc2c(c1)C(=NNC(=O)COc1cc(-c3nc4ccccc4s3)ccc1OC)C(=O)N2 [Compound 9o] , readout=GI%) returns 86.88%

get_value(item= O=C(COc1ccccc1-c1nc2ccccc2s1)NN=C1C(=O)Nc2ccccc21 [Compound 9a] , readout=GI%) returns – (GI% < 5%)
